Origin of measurements: patent US20210324080A1

- subject_of_test: T1, CTLA-4 on human T lymphocytes (PBMC, CD3+ T cells) (human, UniProt P16410 36-223)
- T1 sequence (looked up): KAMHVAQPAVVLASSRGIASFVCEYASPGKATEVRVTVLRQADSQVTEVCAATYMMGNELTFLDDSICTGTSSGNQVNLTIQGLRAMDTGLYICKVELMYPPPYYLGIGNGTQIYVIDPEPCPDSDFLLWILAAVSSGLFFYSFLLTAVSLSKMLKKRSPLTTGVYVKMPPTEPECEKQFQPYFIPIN
- method_summary: cell-based or functional assay
result_type: IL-2 secretion, pg/ml, at 10 ug/ml, N = 2 (pg/mL)
Kindly provide the numeric value in pg/mL only, without the unit symbol.

Examples with their reported IL-2 secretion, pg/ml, at 10 ug/ml, N = 2 follow.
{"binder": "92C8B6 fully human CTLA-4 antibody (human IgG1, kappa) (antibody, V domains shown, also called mAb42; mAb042) VH: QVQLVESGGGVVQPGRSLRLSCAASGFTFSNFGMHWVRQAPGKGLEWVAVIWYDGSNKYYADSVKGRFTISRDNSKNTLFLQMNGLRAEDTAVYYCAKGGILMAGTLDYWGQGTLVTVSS VL: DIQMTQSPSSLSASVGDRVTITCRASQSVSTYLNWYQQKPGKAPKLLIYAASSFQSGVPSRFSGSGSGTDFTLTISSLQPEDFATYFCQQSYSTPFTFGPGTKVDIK", "readout_units": "pg/mL", "numeric_value": 5200}
{"binder": "97A8D1 fully human CTLA-4 antibody (human IgG1, kappa) (antibody, V domains shown, also called mAb49; mAb049) VH: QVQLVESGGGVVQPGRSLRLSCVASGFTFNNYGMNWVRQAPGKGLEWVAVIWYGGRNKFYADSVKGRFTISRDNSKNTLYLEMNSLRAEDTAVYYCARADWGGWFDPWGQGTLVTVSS VL: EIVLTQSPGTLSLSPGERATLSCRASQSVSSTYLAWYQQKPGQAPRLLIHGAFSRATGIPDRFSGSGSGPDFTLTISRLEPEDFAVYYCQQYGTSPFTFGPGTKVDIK", "readout_units": "pg/mL", "numeric_value": 5560}
{"binder": "31C12F3 fully human CTLA-4 antibody (human IgG1, kappa) (antibody, V domains shown, also called mAb010) VH: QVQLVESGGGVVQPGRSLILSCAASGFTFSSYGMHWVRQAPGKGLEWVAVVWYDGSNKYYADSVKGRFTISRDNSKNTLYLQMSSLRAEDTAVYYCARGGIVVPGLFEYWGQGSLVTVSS VL: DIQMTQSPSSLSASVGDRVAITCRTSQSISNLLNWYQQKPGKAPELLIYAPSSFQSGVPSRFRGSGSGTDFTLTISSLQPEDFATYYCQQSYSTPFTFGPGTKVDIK", "readout_units": "pg/mL", "numeric_value": 3810}

Return IL-2 secretion, pg/ml, at 10 ug/ml, N = 2 (reported value) for this binder: 40C4C6 fully human CTLA-4 antibody (human IgG1, kappa) (antibody, V domains shown, also called mAb09; mAb009) VH: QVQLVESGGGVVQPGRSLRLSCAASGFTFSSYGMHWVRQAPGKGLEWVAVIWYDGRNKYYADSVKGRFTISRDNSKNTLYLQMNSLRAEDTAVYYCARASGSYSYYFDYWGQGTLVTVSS VL: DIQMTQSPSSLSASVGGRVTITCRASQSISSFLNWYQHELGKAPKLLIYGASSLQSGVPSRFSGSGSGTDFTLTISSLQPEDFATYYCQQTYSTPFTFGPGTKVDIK
4810
